- assayExplanation: Quantitative highthroughput screen to assess conditional lethalithy of SEM cells grown in RPMI1640 with dialyzed fetal bovine serum (RPMI+ds) (AID 1963884); note: nearly all actives have a fitted effect of over 35% in size
- details: SEM B-ALL cells, RPMI+dialyzed FBS, CellTiter-Glo viability, 48 h; series mostly up to 45.8 µM
Results filed as inconclusive are left out. Calls of active or inactive are those of the source. Calls come from the whole dose curve; as a rule, active = well fitted cell-killing curve with a large enough effect; inconclusive = small, poorly fitted or top-dose-only effect, or effect the other way; inactive = no such curve, though single readings can be large or run the other way.
Outcome codes: active, inactive

{"compound": "CC1(C)SCCN(S(=O)(=O)c2ccc(OCC#CCO)cc2)[C@@H]1C(=O)NO", "groupLabel": "inactive"}
{"compound": "CC1=C(C(=O)Nc2cc3cn[nH]c3cc2F)C(c2ccc(Cl)cc2F)N=C(c2ccnc(Cl)c2)N1 (centres undefined)", "groupLabel": "active"}
{"compound": "COc1cc2nc(N(C)CCCNC(=O)C3CCCO3)nc(N)c2cc1OC (centres undefined)", "groupLabel": "inactive"}
{"compound": "OC[C@H]1O[C@@H](Oc2cc(O)cc(C=Cc3ccc(O)cc3)c2)[C@H](O)[C@@H](O)[C@H]1O", "groupLabel": "inactive"}
{"compound": "Nc1ccccc1NC(=O)c1ccc(CNC(=O)OCc2cccnc2)cc1", "groupLabel": "active"}
{"compound": "CC(C)(C)NC(=O)Nc1cccc(Nc2ncc(F)c(NC(C)(C)CO)n2)c1", "groupLabel": "active"}
{"compound": "CNC(=O)c1ccc(N2C(=S)N(c3ccc(C#N)c(C(F)(F)F)c3)C(=O)C2(C)C)cc1F", "groupLabel": "inactive"}
{"compound": "O=C(O)C1=CC(O)C(O)[C@H](O)C1 (some centres undefined)", "groupLabel": "inactive"}
{"compound": "Cc1nc2cnc3ccc(C#Cc4cccnc4)cc3c2n1-c1ccc(C(C)(C)C#N)cc1", "groupLabel": "active"}
{"compound": "COc1cc(N2CCC(N(C)C)CC2)ccc1Nc1ncc(Cl)c(Nc2ccccc2P(C)(C)=O)n1", "groupLabel": "active"}
{"compound": "CC1(C)O[C@H]2CC(=O)OC[C@]23[C@H]2CC[C@@]4(C)[C@H](c5ccoc5)OC(=O)[C@H]5O[C@]54[C@]2(C)C(=O)C[C@@H]13", "groupLabel": "inactive"}
{"compound": "C=Cc1c(C)c2cc3nc(cc4[nH]c(cc5nc(cc1[nH]2)C(C)=C5CCC(=O)O)c(CCC(=O)OC)c4C)[C@@]1(C)C3=CC=C(C(=O)OC)[C@H]1C(=O)OC", "groupLabel": "inactive"}
{"compound": "C=CC(=O)Nc1cc2c(Nc3ccc(F)c(Cl)c3)ncnc2cc1C#CC(C)(C)N1CCN(C)CC1", "groupLabel": "active"}
{"compound": "O=C(Nc1ncc(-c2cc(C(F)F)nn2-c2c(Cl)cccc2Cl)s1)C1CC1", "groupLabel": "active"}
